# systemUnderTest: Isoform 2 of Nuclear receptor ROR-alpha (Alpha-2) (Homo sapiens, UniProt P35398)
# Sequence (P35398 as listed by the source): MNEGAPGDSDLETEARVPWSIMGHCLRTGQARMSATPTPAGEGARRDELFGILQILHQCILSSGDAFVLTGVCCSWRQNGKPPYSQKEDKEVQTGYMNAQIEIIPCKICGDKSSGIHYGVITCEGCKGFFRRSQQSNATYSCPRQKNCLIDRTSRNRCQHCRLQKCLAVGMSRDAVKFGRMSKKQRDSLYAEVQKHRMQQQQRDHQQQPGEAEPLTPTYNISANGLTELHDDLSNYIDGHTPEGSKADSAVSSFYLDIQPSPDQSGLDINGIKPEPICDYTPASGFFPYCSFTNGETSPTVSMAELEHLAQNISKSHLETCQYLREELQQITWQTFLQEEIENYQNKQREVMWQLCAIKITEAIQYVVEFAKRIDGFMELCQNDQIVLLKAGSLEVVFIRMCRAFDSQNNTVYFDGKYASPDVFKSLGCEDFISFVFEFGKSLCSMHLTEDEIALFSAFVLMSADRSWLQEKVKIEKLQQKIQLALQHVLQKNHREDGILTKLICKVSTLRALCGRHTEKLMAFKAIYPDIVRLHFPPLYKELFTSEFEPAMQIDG
# assayProtocol: activators of RORA ligand-binding domain fusion – cell-based, CHO-K1, Gal4-RORA LBD, luciferase luminescence, counter-screen for SF-1 activator project, dose response (AID 675)
pEC50: −log10 of the molar value.
assayEndpoint: pEC50

# annotated cases, reported pEC50 shown
{"columns": ["compound", "systemUnderTest", "pEC50"],
 "data": [
  ["CCOC(=O)CSc1nc(-c2ccc3c(c2)OCO3)ccc1C#N", "Isoform 2 of Nuclear receptor ROR-alpha (Alpha-2) (Homo sapiens, UniProt P35398)", 5.25],
  ["Cc1nc2sc(-c3ccccc3)cc2c(=O)n1-n1cccc1", "Isoform 2 of Nuclear receptor ROR-alpha (Alpha-2) (Homo sapiens, UniProt P35398)", 6.95],
  ["CCOc1ccc(OCC)c(NC(=O)C2CCCN2S(=O)(=O)c2cccc3cccnc23)c1 (stereo not given) [MLS000119093]", "Isoform 2 of Nuclear receptor ROR-alpha (Alpha-2) (Homo sapiens, UniProt P35398)", 5.67],
  ["O=C(Nc1nccs1)c1ccc(COc2ccc(F)cc2)o1", "Isoform 2 of Nuclear receptor ROR-alpha (Alpha-2) (Homo sapiens, UniProt P35398)", 5.33],
  ["COc1ccc(CCC(=O)Nc2ccc(-c3noc(-c4ccc(OC)c(OC)c4)n3)cc2)cc1 [MLS000049572]", "Isoform 2 of Nuclear receptor ROR-alpha (Alpha-2) (Homo sapiens, UniProt P35398)", 5.61],
  ["COc1cc(N2CCCC2)c(OC)cc1C=c1sc2nc3ccccc3n2c1=O", "Isoform 2 of Nuclear receptor ROR-alpha (Alpha-2) (Homo sapiens, UniProt P35398)", 4.96],
  ["Cc1ccc(C2C(C(=O)c3cnn(-c4ccccc4)c3C)C(=O)C(=O)N2CCN(C)C)o1 (stereo not given)", "Isoform 2 of Nuclear receptor ROR-alpha (Alpha-2) (Homo sapiens, UniProt P35398)", 5.38],
  ["Cc1cc(C(=O)OCC(=O)N2CCc3ccccc32)c(C)o1", "Isoform 2 of Nuclear receptor ROR-alpha (Alpha-2) (Homo sapiens, UniProt P35398)", 6.05]
]}

[P] COc1cccc2c(O)c(C(=O)NCc3cccs3)cnc12
[Q] Cn1c(-c2ccc3c(c2)OCO3)cnc1NCc1ccccc1
For the two items P and Q , which reports the higher pEC50 value? Please identify the chosen entry by its label. P

[1] CCOC(=O)C1CCN(S(=O)(=O)c2ccc(-c3nc4ccccc4s3)s2)CC1
[2] CC(=O)Nc1ccc(-c2cc3ccccc3o2)cc1 [MLS000036584]
Which value of pEC50 is smaller, the one for 1 or the one for 2 ? Please identify the chosen entry by its label. 1
